Data origin: patent US9682938B2

Experiment: In vitro plasma stability, dog plasma
Type: in vitro ADME
Conditions: male, pH 7.4, 5 μM, 37° C., sampling 0-360 minutes, read-out: T1/2 Dog
observed property: half-life at 5 μM (min)
Unit min implied. Number only.

Before answering, review these 3 worked examples.
[
  {
    "compound": "CO/N=C(\\C)C1(NO)C(=O)N(C)N=C1C1CC1 (centres unmarked)",
    "u": "min",
    "half-life at 5 μM": 20
  },
  {
    "compound": "CCOC1=NN(c2ccc(Br)cc2)C(=O)C1(NO)/C(C)=N/OC (centres unmarked)",
    "u": "min",
    "half-life at 5 μM": 24
  },
  {
    "compound": "CO/N=C(\\C)C1(NO)C(=O)N(c2ccccc2)N=C1OC (centres unmarked)",
    "u": "min",
    "half-life at 5 μM": 18
  }
]

Could you now consider this next compound?
Exercise: Tell me the measured half-life at 5 μM of COC(=O)c1ccc(C2=NN(C)C(=O)C2(C)NO)cc1 (centres unmarked) , please.
Key: 71

###

Assay: In vitro plasma stability, dog plasma
Assay type: in vitro ADME
Details: male, pH 7.4, 5 μM, 37° C., sampling 0-360 minutes, read-out: T1/2 Dog
Kind request: treat 20 min as inclusive, so half-life at 5 μM at 20 min or higher is Condition met, anything lower is Condition not met.

The following compounds have reported results that may help.
[
  {
    "compound": "CCS(=O)(=O)c1ccc(C2=NN(C)C(=O)C2(C)NO)cc1 (stereo not drawn) [Compound 86]",
    "qualitative label": "Condition met"
  },
  {
    "compound": "COc1ccc(C2(NO)C(=O)N(C)N=C2C)cc1 (stereo not drawn) [Compound 43]",
    "qualitative label": "Condition met"
  },
  {
    "compound": "COc1ccc(C2=NN(C)C(=O)C2(C)NO)cc1 (stereo not drawn) [Compound 53]",
    "qualitative label": "Condition met"
  },
  {
    "compound": "CN1N=C(c2cc(Cl)cc(Cl)c2)C(C)(NO)C1=O (stereo not drawn) [Compound 9]",
    "qualitative label": "Condition met"
  },
  {
    "compound": "CC1=NN(C)C(=O)C1(NO)/C(C)=N/OCc1ccccc1 (stereo not drawn) [Compound 103]",
    "qualitative label": "Condition not met"
  }
]

Exercise: Does the compound CO/N=C(\C)C1(NO)C(=O)N(C)N=C1c1ccc(F)cc1 (stereo not drawn) [Compound 64] have recorded half-life at 5 μM that is 20 min or more?
Key: Condition not met

Exercise: Is the recorded value of half-life at 5 μM equal to or greater than 20 min for this compound? CN1N=C(c2ccc(C(=O)N3CCC(F)(F)CC3)cc2)C(C)(NO)C1=O (stereo not drawn) [Compound 85]
Key: Condition met

Exercise: Decide: is the reported value of half-life at 5 μM for CN1N=C(c2cccc(C(F)(F)F)c2)C(C)(NO)C1=O (stereo not drawn) [Compound 22] equal to or greater than 20 min?
Key: Condition met

Exercise: Could you verify whether the entry CC1=NN(C)C(=O)C1(NO)c1cccc(Cl)c1 (stereo not drawn) [Compound 99] shows half-life at 5 μM of no less than 20 min?
Key: Condition not met

Exercise: Check if half-life at 5 μM >= 20 min (inclusive). Item: CCO/N=C(\C)C1(NO)C(=O)N(C)N=C1C (stereo not drawn) [Compound 106]
Key: Condition not met

Exercise: Check the entry COc1ccc(C2(NO)C(=O)N(C)N=C2C)cc1C (stereo not drawn) [Compound 76] : does half-life at 5 μM equal or exceed 20 min?
Key: Condition met

Exercise: Is the recorded value of half-life at 5 μM equal to or greater than 20 min for this compound? CCOC1=NN(c2ccccc2)C(=O)C1(C)NO (stereo not drawn) [Compound 127]
Key: Condition met

Exercise: Threshold query (half-life at 5 μM >= 20 min) on CN1N=C(c2ccc(S(C)(=O)=O)c(N3CCNCC3)c2)C(C)(NO)C1=O (stereo not drawn) [Compound 93]
Key: Condition met

Exercise: Textbook exercise: given the entry CCOC1=NN(C)C(=O)C1(NO)/C(C)=N/OCc1ccccc1 (stereo not drawn) [Compound 125] , state whether its half-life at 5 μM is greater than or equal to 20 min.
Key: Condition not met

Exercise: Reported half-life at 5 μM at or above 20 min? CN1N=C(C(C)(C)C)C(NO)(c2ccc(S(=O)(=O)N(C)C)cc2)C1=O (stereo not drawn) [Compound 122]
Key: Condition met
